Measured abundance fitness, listed per entry.
B1: Retinoic acid receptor beta, residues 85 to 161; numbered along this chain, P10826 (parent)
chain: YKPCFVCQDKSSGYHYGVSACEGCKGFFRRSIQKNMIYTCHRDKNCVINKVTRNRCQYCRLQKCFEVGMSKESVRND

Variants of: B1
Assay: abundance fitness (aPCA) (normalised: wild type 0, dead -1); higher = more abundant; growth selection in yeast, the domain comes from the species named
Settings: Homo sapiens
observable: abundance fitness

mutation.label | observed.value
F5M | -0.155
R55Y | 0.077
S12G | -0.242
M36G | -0.141
Q57A | 0.158
R42C | 0.145
C59L | -0.84
G23T | -0.008
S31Y | -0.51
V18Q | -0.04
C59F | -0.872
A20T | -0.065
T39S | -0.01
S31I | -0.413
V6L | -0.81
C59G | -0.758
L61M | -0.023
Y58V | -0.679
R42Q | 0.121
F5W | -0.316
L61H | -0.503
F28V | -0.688
Q33R | -0.037
Q57S | 0.144
N49P | -0.431
Y14P | 0.125
D43Y | -0.103
K10A | 0.147
G13L | -0.457
N49G | -0.255
Y14S | -0.044
R55I | 0.155
D9C | -0.525
S31W | -0.09
R60W | 0.114
I37Q | 0.1
K10G | -0.045
C21I | -0.89
N35G | 0.077
Q8A | 0.022
R55M | 0.25
